testProtocol: ATG_PBREM_CIS: Attagene CIS-FACTORIAL HepG2 Assay for human Phenobarbital-responsive Enhancer Module (PBREM) (AID 2282955)
conditionParameters: HepG2 PBREM cis-reporter, Attagene multiplexed transcription; actives raise or lower the signal
Calls of active or inactive are those of the source. The calls were made as follows: active = hit-call score of the fitted dose curve at least 0.9, where 1 is the maximum; inactive = score below 0.9.
testReadout: AC50

Recorded results for 5 compounds are shown here.
{"compound": "C=CCOC(Cn1ccnc1)c1ccc(Cl)cc1Cl (stereo not drawn)", "testReadout": "AC50", "reportedMeasurement": "inactive"}
{"compound": "c1ccc2[nH]c(-c3cscn3)nc2c1", "testReadout": "AC50", "reportedMeasurement": "inactive"}
{"compound": "CCCCC(CC)COC(=O)c1ccccc1C(=O)O (stereo not drawn)", "testReadout": "AC50", "reportedMeasurement": "inactive"}
{"compound": "O=C(O)c1ccccc1", "testReadout": "AC50", "reportedMeasurement": "inactive"}
{"compound": "CCCN(CCC)c1c([N+](=O)[O-])cc(C(F)(F)F)c(N)c1[N+](=O)[O-]", "testReadout": "AC50", "reportedMeasurement": "29.7 µM (active)"}

Form: compound = O=C(O)C1(C(=O)Nc2ccc(Cl)cc2Cl)CC1 ; AC50 = inactive

For record c1ccc(Nc2ccccc2)cc1 the listed AC50 is inactive
